# Test system: EMT6
# test_description: In vitro phototoxicity in EMT-6 cells at 1 uM after 6 hr MTT assay; Not active
# Type: functional, cell-based
# assay_conditions: Mus musculus, tested as the Zn salt or complex
Active and inactive are the calls of the source. No cut-off for these calls is given here.
reported_metric: LD90

Data request, read-out LD90, for "CCCCc1ccc2c(c1)-c1nc-2nc2[nH]c(nc3nc(nc4[nH]c(n1)c1ccc(CCCC)cc41)-c1ccc(C#CC#CCCCC[C@@]4(O)CC[C@H]5[C@@H]6CCc7cc(O)ccc7[C@H]6CC[C@@]54C)cc1-3)c1ccc(CCCC)cc21"
inactive

Data request, read-out LD90, for "CCCCc1ccc2cc3c(cc2c1)-c1nc-3nc2[nH]c(nc3nc(nc4[nH]c(n1)c1cc5ccc(CCCC)cc5cc41)-c1ccc(C#C[C@@]4(O)CC[C@H]5[C@@H]6CCc7cc(O)ccc7[C@H]6CC[C@@]54C)cc1-3)c1cc3ccc(CCCC)cc3cc21"
inactive
